system: NCI-H460 lung
Respond with a class label; see T for active, F for inactive

Example entries begin here.
[in] Look up the recorded call for N#CC1(Nc2ccc(Br)cc2)CCCC1 in this test.
[out] F

[in] Look up the recorded call for O=C(C[n+]1cccc2cc(Cl)ccc21)c1ccc2c(c1)CCCC2 in this test.
[out] F

[in] Look up the recorded call for CC[N+](CC)=c1cc2oc3cc(N(C)C)ccc3nc-2cc1C in this test.
[out] F

New cases:
[in] Look up the recorded call for O=C1/C=C/[C@@H](O)[C@@H]2C[C@@H](O)C[C@H]2/C=C/CCC[C@H](CCOCc2ccccc2)O1 in this test.
[out] T

* * *

The entries below are paired with their reported GI50.
system: HCT-15 colon; test: NCI tumour cell line growth inhibition, 48 h

[in] Quick check: GI50 of Nc1n[nH]c2cccc(C#Cc3cccc(NC(=O)c4ccc(N5CCOCC5)c(C(F)(F)F)c4)c3)c12 ?
[out] 1.54 µM

[in] Quick check: GI50 of S=C(S)NCCNC(=S)S.[Cu+2] ?
[out] 51.6 µM

[in] Quick check: GI50 of COc1cc(-c2nccn2-c2ccc3ccccc3c2)cc(OC)c1OC ?
[out] < 0.0226 µM

[in] Quick check: GI50 of C1C[OH+]CC[OH+]CC[OH+]CC[OH+]CC[OH+]CC[OH+]1.[Cl-].[V] ?
[out] 50.9 µM

[in] Quick check: GI50 of O=C1/C=C/[C@@H](O)[C@@H]2C[C@@H](O)C[C@H]2/C=C/CCC[C@H](CCOCc2ccccc2)O1 ?
[out] 0.29 µM

New cases:
[in] Quick check: GI50 of COc1ccc(/C(C)=C(\c2ccc(Cl)cc2)c2ccc(OCCN3CCCCC3)cc2)cc1 ?
[out] 1.16 µM

[in] Quick check: GI50 of c1cc[n+](C2c3ccccc3C([n+]3ccccc3)c3ccccc32)cc1 (centres undefined) ?
[out] > 100 µM

[in] Quick check: GI50 of Cc1ccc(S(=O)(=O)c2ccccc2)cc1 ?
[out] 4.91 µM

* * *

The entries below are paired with their reported TGI.
test system: SW-620 colon; assay: NCI tumour cell line growth inhibition, 48 h

Look over these answered cases.
[in] Quick check: TGI of CCOC(=O)O/C(=C\c1ccc(OC)cc1)c1c(OC(=O)OCC)n(C(=O)OCC)c2ccccc12 ?
[out] > 100 µM

[in] Quick check: TGI of O=C(Nc1ccc(Cl)cc1)c1cc2c(cc1Cl)SC(NNCCO)=NS2(=O)=O ?
[out] > 100 µM

[in] Quick check: TGI of Nc1cccc2nnccc12 ?
[out] > 100 µM

[in] Quick check: TGI of CNC(=O)c1ccccc1Nc1cc(Nc2ccc(N3CCOCC3)cc2OC)ncc1C(F)(F)F ?
[out] > 65.6 µM

[in] Quick check: TGI of COc1ccc(/C(C)=C(\c2ccc(Cl)cc2)c2ccc(OCCN3CCCCC3)cc2)cc1 ?
[out] 8.09 µM

New cases:
[in] Quick check: TGI of CCn1c(O)c(C=Nc2ccccc2)s/c1=N/Nc1ncc(CC(=O)Nc2ccccc2C)s1 ?
[out] > 100 µM

[in] Quick check: TGI of Cc1cc(S(=O)(=O)n2cc[nH]c2=O)c(SCCCN(C)C)cc1Cl ?
[out] > 100 µM

* * *

test system: T-47D breast; experiment: NCI tumour cell line growth inhibition, 48 h
Where a SMILES comes first, the peptide text is derived from it. [ ]: non-standard residue; d: D form.
endpoint_name: TGI

Look over these answered cases.
[in] Quick check: TGI of Nc1n[nH]c2cccc(C#Cc3cccc(NC(=O)c4ccc(N5CCOCC5)c(C(F)(F)F)c4)c3)c12 ?
[out] 3.68 µM

[in] Quick check: TGI of CC1=C(C(=O)Nc2ccc(F)c(Cl)c2)C(c2cccc(Cl)c2)NC(=S)N1 (stereo not drawn) ?
[out] > 50 µM

[in] Quick check: TGI of CC[N+](CC)=c1cc2oc3cc(N(C)C)ccc3nc-2cc1C ?
[out] > 100 µM

[in] Quick check: TGI of COc1nc(N)c(N=O)c(OCc2ccccc2)n1 ?
[out] 5.49 µM

[in] Quick check: TGI of CC[C@H](C)[C@H](NC(=O)c1ccccn1)C(=O)N(C)[C@H](C[C@@H](OC(C)=O)c1nc(C(=O)N[C@@H](Cc2ccccc2)C[C@H](C)C(=O)OC)cs1)C(C)C ?
[out] > 100 µM

[in] Quick check: TGI of COc1ccc2c(c1)/C(=N/OC(C)=O)c1c-2c(Nc2cccc(/C(C)=N/OC(C)=O)c2)nc2ccccc12 ?
[out] > 100 µM

New cases:
[in] Quick check: TGI of C=CC(=O)C#CC#CC/C=C\CCCCCCC ?
[out] > 20.6 µM

[in] Quick check: TGI of NC(N)=NCCC[C@H]1NC(=O)[C@@H](CCC(=O)O)NC(=O)[C@@H](CC(=O)O)NC(=O)[C@@H](CCC(=O)O)NC(=O)[C@H](Cc2c[nH]c3ccccc23)NC1=O (cyclo(W[dE][dD][dE][dR])) ?
[out] > 7.5 µM

[in] Quick check: TGI of CCCCC(CCCCCC(CCCC)C1NC(C)Cc2cc(OC)c(OC)cc21)C1NC(C)Cc2cc(OC)c(OC)cc21 (stereo not drawn) ?
[out] 3.11 µM

* * *

tested on: COLO 205 colon; assay: NCI tumour cell line growth inhibition, 48 h; in the data active = GI50 below about 0.43 µM; inactive = the rest
Respond with a class label; see active, inactive

[in] Look up the recorded call for O=C(c1ccc(Cl)c(Cl)c1)N1CCN(C(=O)c2ccc(Cl)c(Cl)c2)C1=S in this test.
[out] inactive

[in] Look up the recorded call for Cc1ccc(S(=O)(=O)c2ccccc2)cc1 in this test.
[out] inactive

[in] Look up the recorded call for COc1cc2c(/C=C3/C(=O)Nc4c3ccc3ccccc43)c(Cl)n(C)c2cc1C in this test.
[out] active

New cases:
[in] Look up the recorded call for COc1cccc2c1C(=O)c1c(O)c3c(c(O)c1C2=O)C[C@@](O)(C(=O)CO)C[C@@H]3OC1CC2C(OCN3CN2COC2C(C)OC(O[C@H]4C[C@](O)(C(=O)CO)Cc5c(O)c6c(c(O)c54)C(=O)c4c(OC)cccc4C6=O)CC23)C(C)O1 (stereo not given in full) in this test.
[out] active

[in] Look up the recorded call for COc1cccc(C2=C(c3cn(C)c4ccc(Cl)cc34)C(=O)NC2=O)c1 in this test.
[out] inactive

* * *

tested on: MCF7 breast; assay: NCI tumour cell line growth inhibition, 48 h
endpoint_name: TGI

Look over these answered cases.
[in] What measured TGI is associated with O=c1n(-c2ccc(Cl)c(Cl)c2)c(=O)n(-c2ccc(Cl)c(Cl)c2)c(=O)n1-c1ccc(Cl)c(Cl)c1 on MCF7 breast?
[out] 5.03 µM

[in] What measured TGI is associated with CN[C@@H](C)C(=O)N[C@H]1CCS[C@H]2CC(C)(C)[C@@H](C(=O)N[C@H]3c4ccccc4C[C@H]3OCC#CC#CCO[C@@H]3Cc4ccccc4[C@@H]3NC(=O)[C@H]3N4C(=O)[C@@H](NC(=O)[C@H](C)NC)CCS[C@H]4CC3(C)C)N2C1=O on MCF7 breast?
[out] 17.8 µM

[in] What measured TGI is associated with Clc1cc(OC23CC4CC(CC(C4)C2)C3)nc(Cl)n1 on MCF7 breast?
[out] > 100 µM

[in] What measured TGI is associated with COc1cc(C(c2c(O)c3ccccc3oc2=O)c2c(O)c3ccccc3oc2=O)ccc1O on MCF7 breast?
[out] 38.2 µM

[in] What measured TGI is associated with O=C(c1ccc(Cl)cc1)N(C(=S)OC12CC3CC(CC(C3)C1)C2)c1ccccc1 on MCF7 breast?
[out] > 100 µM

[in] What measured TGI is associated with O=C(Nc1ncc(Cc2ccccc2)s1)c1sc2ccccc2c1Cl on MCF7 breast?
[out] > 100 µM

New cases:
[in] What measured TGI is associated with Cn1c(=O)c2c(nc3n(Cc4ccccc4)c(=O)c(Br)cn23)n(C)c1=O on MCF7 breast?
[out] > 100 µM

[in] What measured TGI is associated with CCc1n[nH]c(=O)n1/N=C/c1ccc(/C=N/n2c(CC)n[nH]c2=O)cc1 on MCF7 breast?
[out] > 100 µM

* * *

system: LOX IMVI melanoma; experiment: NCI tumour cell line growth inhibition, 48 h; in the data active means GI50 below about 0.43 µM; inactive means the rest
Where a SMILES comes first, the peptide text is derived from it. [ ]: non-standard residue; d: D form. The star is where a group is joined. Dolaproine = CO[C@@H]([C@@H]1CCCN1)[C@@H](C)C(=O)O; Dil = CC[C@H](C)[C@H](NC)[C@@H](CC(=O)O)OC; X2 = C[C@@H](N*)[C@@H](O)c1ccccc1; NMeV = CN[C@H](C(=O)O)C(C)C
Respond with a class label; see active, inactive

[in] Look up the recorded call for CC[C@H](C)[C@@H]([C@@H](CC(=O)N1CCC[C@H]1[C@H](OC)[C@@H](C)C(=O)N[C@H](C)[C@@H](O)c1ccccc1)OC)N(C)C(=O)[C@@H](NC(=O)[C@@H](NC)C(C)C)C(C)C (H-[NMeV]V[Dil][Dolaproine]-X2) in this test.
[out] active

[in] Look up the recorded call for CCOc1cc(F)c([N+](=O)[O-])cc1[N+](=O)[O-] in this test.
[out] inactive

[in] Look up the recorded call for OCCCCC#Cc1ccccc1C#Cc1ccccn1 in this test.
[out] inactive

[in] Look up the recorded call for O=C(C[n+]1cccc2cc(Cl)ccc21)c1ccc2c(c1)CCCC2 in this test.
[out] inactive

[in] Look up the recorded call for COc1cc(-c2nccn2-c2ccc3ccccc3c2)cc(OC)c1OC in this test.
[out] inactive

[in] Look up the recorded call for Oc1c(Br)cc(Br)c2ccc(Cn3cc(-c4ccc(C(F)(F)F)cc4)nn3)nc12 in this test.
[out] active

New cases:
[in] Look up the recorded call for O=C1/C(=C/c2ccccc2)CN(C(=O)CCN2CCC(=NO)CC2)C/C1=C\c1ccccc1 in this test.
[out] active

[in] Look up the recorded call for COc1ccc2cc(C#Cc3ccc(-n4c(/C=C/c5cc(OC)c(OC)c(OC)c5)nc5ccccc5c4=O)c(C)c3)ccc2c1 in this test.
[out] inactive

[in] Look up the recorded call for Clc1ccc2c(N3CCN(c4ccnc(NC5CCCCC5)n4)CC3)ccnc2c1 in this test.
[out] inactive
